testSystem: NR2B (Homo sapiens)
Construct: host or cells: HEK293 or CHO
Sequence (Q13224 27-1484, other chains not shown): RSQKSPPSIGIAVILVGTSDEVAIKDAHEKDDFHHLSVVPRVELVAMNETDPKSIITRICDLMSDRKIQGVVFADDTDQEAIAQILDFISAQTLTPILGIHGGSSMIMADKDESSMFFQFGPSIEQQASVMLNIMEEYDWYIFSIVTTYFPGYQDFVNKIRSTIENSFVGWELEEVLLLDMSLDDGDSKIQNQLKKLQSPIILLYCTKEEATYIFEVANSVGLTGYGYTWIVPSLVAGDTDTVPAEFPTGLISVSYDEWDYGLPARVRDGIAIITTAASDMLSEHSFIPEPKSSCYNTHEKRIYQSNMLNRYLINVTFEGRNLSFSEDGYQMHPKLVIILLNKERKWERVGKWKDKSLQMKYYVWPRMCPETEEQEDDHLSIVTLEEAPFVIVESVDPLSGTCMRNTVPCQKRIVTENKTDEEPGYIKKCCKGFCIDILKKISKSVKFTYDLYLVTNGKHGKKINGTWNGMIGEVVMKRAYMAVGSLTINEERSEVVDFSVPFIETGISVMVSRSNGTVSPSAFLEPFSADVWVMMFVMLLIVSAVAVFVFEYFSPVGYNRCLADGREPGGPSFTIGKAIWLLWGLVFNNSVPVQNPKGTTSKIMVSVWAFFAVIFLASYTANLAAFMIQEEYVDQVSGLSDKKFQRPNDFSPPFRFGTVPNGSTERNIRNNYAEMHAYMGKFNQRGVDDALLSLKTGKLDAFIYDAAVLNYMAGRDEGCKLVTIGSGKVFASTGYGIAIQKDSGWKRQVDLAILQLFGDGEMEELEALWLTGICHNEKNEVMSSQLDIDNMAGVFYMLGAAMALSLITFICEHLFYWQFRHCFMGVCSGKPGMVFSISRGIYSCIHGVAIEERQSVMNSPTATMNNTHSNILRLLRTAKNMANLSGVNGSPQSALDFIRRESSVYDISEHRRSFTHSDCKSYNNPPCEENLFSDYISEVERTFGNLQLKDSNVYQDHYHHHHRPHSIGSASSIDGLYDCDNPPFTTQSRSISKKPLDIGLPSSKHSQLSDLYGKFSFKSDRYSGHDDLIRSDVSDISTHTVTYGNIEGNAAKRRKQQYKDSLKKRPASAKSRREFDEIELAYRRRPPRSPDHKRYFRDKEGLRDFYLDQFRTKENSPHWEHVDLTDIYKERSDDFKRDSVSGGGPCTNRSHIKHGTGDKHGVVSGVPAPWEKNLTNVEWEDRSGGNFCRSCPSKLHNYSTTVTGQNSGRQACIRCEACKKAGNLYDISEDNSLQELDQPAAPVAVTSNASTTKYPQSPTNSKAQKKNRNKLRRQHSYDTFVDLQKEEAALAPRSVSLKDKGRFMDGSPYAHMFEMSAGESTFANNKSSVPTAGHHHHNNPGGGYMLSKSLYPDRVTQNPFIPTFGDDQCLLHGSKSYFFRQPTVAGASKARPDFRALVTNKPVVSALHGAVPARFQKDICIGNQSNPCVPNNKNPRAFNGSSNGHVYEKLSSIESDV
assayProcedure: Ion channel panel (IonWorks Barracuda): NR2B
Type: cell-based
statedConditions: peptide at 20 μM; 100% = no change, <100% = inhibition
endpoint: Activity of NR2B with peptide (percentage of the reference compound) (%)

substance	valueReported
2 (GSEVIRCSGSKQCYGPCKQQTGCTNSKCMNKVCKCYGCG) [compound 2]	72
25 (GSACLAEYQKCEGSTVPCCPGLSCSAGRFRKTKLCTK) [compound 25]	94
23 (GSCIGEGVPCDENDPRCCFGLVCLKPTLHGIWYKSYYCYKK) [compound 23]	82
30 (GSQVSTNKKCSNTSQCYKTCEKVVGVAAGKCMNGKCICYP) [compound 30]	88
34 (GGYSRCQLQGFNCVVRSYGLPTIPCCRGLTCRSYFPGSTYGRCQRY) [compound 34]	66
